# System: LNCaP
# method_notes: Cytostatic activity against human LNCAP cells after 4 days by MTT assay
# Assay type: functional, cell-based
# reported_conditions: 96 h
parameter_measured: pIC50
Give bare numbers, as −log10 of the molar value.

Solved entries (count: 3):
COc1cccc2c1C(=O)c1c(O)c3c(c(O)c1C2=O)C[C@@](O)(/C(C)=N/OCC(=O)NCCCC[C@H](NC(=O)[C@H](CCC(=O)O)NC(=O)c1ccc(N(C)Cc2cnc4nc(N)nc(N)c4n2)cc1)C(=O)NCCCC[C@H](NC(=O)[C@H](Cc1c[nH]c2ccccc12)NC(=O)[C@H](CC(=O)O)NC(=O)[C@H](Cc1cnc[nH]1)NC(=O)[C@H](CO)NC(=O)[C@H](Cc1c[nH]c2ccccc12)NC(=O)[C@H](Cc1cnc[nH]1)NC(=O)[C@@H]1CCC(=O)N1)C(=O)N1CCC[C@H]1C(=O)NCC(N)=O)C[C@@H]3O[C@H]1C[C@H](N)[C@H](O)[C@H](C)O1 :: 4.95
CN(Cc1cnc2nc(N)nc(N)c2n1)c1ccc(C(=O)N[C@@H](CCC(=O)O)C(=O)O)cc1 [METHOTREXATE] :: 6.52
COc1cccc2c1C(=O)c1c(O)c3c(c(O)c1C2=O)C[C@@](O)(C(C)=O)C[C@@H]3O[C@H]1C[C@H](N)[C@H](O)[C@H](C)O1 :: 7.00

Next item in the queue.
Could you tell me which pIC50 is on file for `COc1cccc2c1C(=O)c1c(O)c3c(c(O)c1C2=O)C[C@@](O)(/C(C)=N/OCC(=O)NCCCC[C@H](NC(=O)[C@H](Cc1c[nH]c2ccccc12)NC(=O)[C@H](CC(=O)O)NC(=O)[C@H](Cc1cnc[nH]1)NC(=O)[C@H](CCCCNC(=O)[C@H](CCC(=O)O)NC(=O)c1ccc(N(C)Cc2cnc4nc(N)nc(N)c4n2)cc1)NC(=O)[C@H](Cc1c[nH]c2ccccc12)NC(=O)[C@H](Cc1cnc[nH]1)NC(=O)[C@@H]1CCC(=O)N1)C(=O)N1CCC[C@H]1C(=O)NCC(N)=O)C[C@@H]3O[C@H]1C[C@H](N)[C@H](O)[C@H](C)O1` ?
4.54
